Could you please report measured Drug Conc (LDL) for the items listed next?
Species on record: Oryctolagus cuniculus
Experiment: Compound concentration in low-density lipoprotein (LDL).
Assay type: functional
Write the numeric value and follow it with the unit.

smiles structure	reported
CCCC(C)(Sc1cc(C(C)(C)C)c(O)c(C(C)(C)C)c1)Sc1cc(C(C)(C)C)c(O)c(C(C)(C)C)c1	23 µg/mL
CCCCC(C)(Sc1cc(C)c(O)c(C(C)(C)C)c1)Sc1cc(C)c(O)c(C(C)(C)C)c1	3 µg/mL
CC(C)(C)c1cc(SCSc2cc(C(C)(C)C)c(O)c(C(C)(C)C)c2)cc(C(C)(C)C)c1O	65 µg/mL

Shift focus to the following entry.
Name the recorded Drug Conc (LDL) of the item `CC(C)(Sc1cc(C(C)(C)C)c(O)c(C(C)(C)C)c1)Sc1cc(C(C)(C)C)c(O)c(C(C)(C)C)c1` in your answer. 41 µg/mL

----------
Species on record: Oryctolagus cuniculus
Assay: Compound concentration in serum.
Format: functional
recorded metric: Drug Conc (serum) (µg/mL)
Numbers only, in µg/mL.

Completed entries (count: 2):
smiles structure	Drug Conc (serum) [µg/mL]
CCCCC(C)(Sc1cc(C)c(O)c(C(C)(C)C)c1)Sc1cc(C)c(O)c(C(C)(C)C)c1	6.4
CC(C)(Sc1cc(C(C)(C)C)c(O)c(C(C)(C)C)c1)Sc1cc(C(C)(C)C)c(O)c(C(C)(C)C)c1	56

Please state Drug Conc (serum) for every compound in the list that follows.
1. CC(C)(C)c1cc(SCSc2cc(C(C)(C)C)c(O)c(C(C)(C)C)c2)cc(C(C)(C)C)c1O
2. CCCC(C)(Sc1cc(C(C)(C)C)c(O)c(C(C)(C)C)c1)Sc1cc(C(C)(C)C)c(O)c(C(C)(C)C)c1

1. 135
2. 42

Hello, the source for this data is ChEMBL document CHEMBL1125734, in case you need it.
